These measurements were taken from patent US20170342144A1.

Molecular target: T1, human TGFβ3 (human, UniProt P10600 301-412)
T1 sequence: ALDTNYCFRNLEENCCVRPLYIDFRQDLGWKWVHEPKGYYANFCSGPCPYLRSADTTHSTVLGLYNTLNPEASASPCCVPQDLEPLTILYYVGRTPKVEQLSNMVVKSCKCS
Assay: Biacore off-rate vs wt GC1008, 50 nM
observation.type: kd var/kd wt
The answer should be written as a number, with no unit following it.

kd var/kd wt reading for N32Y (antibody, V domains shown, GC1008 IgG4 variant) VH: QVQLVQSGAEVKKPGSSVKVSCKASGYTFSSYVISWVRQAPGQGLEWMGGVIPIVDIANYAQRFKGRVTITADESTSTTYMELSSLRSEDTAVYYCASTLGLVLDAMDYWGQGTLVTVSS VL: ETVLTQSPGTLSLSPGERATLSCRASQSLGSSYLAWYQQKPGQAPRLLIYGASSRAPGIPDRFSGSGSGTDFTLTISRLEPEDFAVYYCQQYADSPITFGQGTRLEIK : 1.7

kd var/kd wt reading for D56R (antibody, V domains shown, GC1008 IgG4 variant) VH: QVQLVQSGAEVKKPGSSVKVSCKASGYTFSSNVISWVRQAPGQGLEWMGGVIPIVRIANYAQRFKGRVTITADESTSTTYMELSSLRSEDTAVYYCASTLGLVLDAMDYWGQGTLVTVSS VL: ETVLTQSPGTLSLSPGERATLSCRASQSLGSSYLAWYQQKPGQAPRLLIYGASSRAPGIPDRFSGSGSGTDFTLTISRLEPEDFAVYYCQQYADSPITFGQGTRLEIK : 0.7

kd var/kd wt reading for N32Q (antibody, V domains shown, GC1008 IgG4 variant) VH: QVQLVQSGAEVKKPGSSVKVSCKASGYTFSSQVISWVRQAPGQGLEWMGGVIPIVDIANYAQRFKGRVTITADESTSTTYMELSSLRSEDTAVYYCASTLGLVLDAMDYWGQGTLVTVSS VL: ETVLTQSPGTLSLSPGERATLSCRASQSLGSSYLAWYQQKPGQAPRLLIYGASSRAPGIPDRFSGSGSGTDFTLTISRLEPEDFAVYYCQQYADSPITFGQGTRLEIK : 0.7

kd var/kd wt reading for S31R (antibody, V domains shown, GC1008 IgG4 variant) VH: QVQLVQSGAEVKKPGSSVKVSCKASGYTFSRNVISWVRQAPGQGLEWMGGVIPIVDIANYAQRFKGRVTITADESTSTTYMELSSLRSEDTAVYYCASTLGLVLDAMDYWGQGTLVTVSS VL: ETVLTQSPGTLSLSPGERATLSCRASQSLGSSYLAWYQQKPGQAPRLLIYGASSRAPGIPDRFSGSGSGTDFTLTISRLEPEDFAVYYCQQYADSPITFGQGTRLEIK : 1.5

kd var/kd wt reading for I54P (antibody, V domains shown, GC1008 IgG4 variant) VH: QVQLVQSGAEVKKPGSSVKVSCKASGYTFSSNVISWVRQAPGQGLEWMGGVIPPVDIANYAQRFKGRVTITADESTSTTYMELSSLRSEDTAVYYCASTLGLVLDAMDYWGQGTLVTVSS VL: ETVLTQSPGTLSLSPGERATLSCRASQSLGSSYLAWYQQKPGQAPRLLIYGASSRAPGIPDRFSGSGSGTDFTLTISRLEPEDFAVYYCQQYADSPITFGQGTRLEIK : 1.6
